Tested on: A388;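 note: growth inhibition of human A388 cells, read out with a cell viability assay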
Assay: cells
Format: functional, cell-based
Conditions: Homo sapiens
Description: SANGER: Inhibition of human A388 cell growth in a cell viability assay.
MEASUREMENT_TYPE: IC50 (nM)
Output spec: scalar in nM, unitless text.

[
  {
    "SMILES_DATA": "CO[C@@]12[C@H](COC(N)=O)C3=C(C(=O)C(C)=C(N)C3=O)N1C[C@@H]1N[C@@H]12",
    "RECORDED_NUMBER": 207
  }
]

We next turn to a different compound, shown below.
Data request: Fill in the blank: the reported IC50 of Cc1nc(Nc2ncc(C(=O)Nc3c(C)cccc3Cl)s2)cc(N2CCN(CCO)CC2)n1 is ____.
Data returned: 50.9
